assayed system: Gastrin/cholecystokinin type B receptor (Rattus norvegicus)
Sequence (P30553 whole entry): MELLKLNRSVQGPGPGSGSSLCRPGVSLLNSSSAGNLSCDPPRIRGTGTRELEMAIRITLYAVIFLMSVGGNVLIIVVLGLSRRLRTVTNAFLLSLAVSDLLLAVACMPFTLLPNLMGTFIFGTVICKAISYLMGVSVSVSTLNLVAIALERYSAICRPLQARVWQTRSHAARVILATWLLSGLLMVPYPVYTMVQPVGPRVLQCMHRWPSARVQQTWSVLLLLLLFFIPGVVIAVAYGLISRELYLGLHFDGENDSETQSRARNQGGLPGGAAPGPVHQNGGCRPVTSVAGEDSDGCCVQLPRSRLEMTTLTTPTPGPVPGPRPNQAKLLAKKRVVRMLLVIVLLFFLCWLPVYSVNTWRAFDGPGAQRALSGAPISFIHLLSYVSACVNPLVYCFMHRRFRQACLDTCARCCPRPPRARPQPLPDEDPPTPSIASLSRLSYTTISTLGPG
assay summary: Displacement of [125I]-BH-CCK-8 from CCK-B receptor in rat cerebral cortex plasma membrane after 1 hr by liquid scintillation counting method
Listed below: pIC50 values for each entry.
Note on units: pIC50 is unitless, being -log10 of a concentration expressed in mol/L.

compound smiles: O=C(O)c1cccc(NC(=S)NNc2nc3ccccc3c(=O)n2-c2ccccc2)c1
pIC50: 6.01

compound smiles: Cc1ccc(-n2c(N/N=C3\C(=O)Nc4ccccc43)nc3ccccc3c2=O)cc1
pIC50: 7.25

compound smiles: CCOc1ccc(-n2c(NNC(=S)Nc3ccc(Br)cc3)nc3ccccc3c2=O)cc1
pIC50: 8.70

QUERY: Entry O=C(O)c1cccc(NC(=S)NNc2nc3ccccc3c(=O)n2-c2ccc(Br)cc2)c1 needs its pIC50 filled in; supply it.
RESULT: 9.70

QUERY: Tell us which pIC50 value is on record for CCOc1ccc(-n2c(NNC(=S)Nc3cccc(C(=O)O)c3)nc3ccccc3c2=O)cc1
RESULT: 9.18

----------
assayed system: Gastrin/cholecystokinin type B receptor (Mus musculus)
assay summary: Inhibition of CCK-B receptor in lumen perfused albino mouse stomach assessed as reduction in boc-pentagastrin-induced gastric acid secretion after 45 mins relative to control
Format: functional
reported property: inhibition

compound smiles: CCOc1ccc(-n2c(N/N=C3\C(=O)Nc4ccccc43)nc3ccccc3c2=O)cc1
reported property: inhibition
result: Dose-dependent effect
//
compound smiles: O=C(O)c1cccc(NC(=S)NNc2nc3ccccc3c(=O)n2-c2ccc(Br)cc2)c1
reported property: inhibition
result: Dose-dependent effect
//
compound smiles: O=C(O)c1cccc(NC(=S)NNc2nc3ccccc3c(=O)n2-c2ccccc2)c1
reported property: inhibition
result: Dose-dependent effect
//
compound smiles: CCOc1ccc(-n2c(NNC(=S)Nc3cccc(C(=O)O)c3)nc3ccccc3c2=O)cc1
reported property: inhibition
result: Dose-dependent effect
//
compound smiles: CCOc1ccc(-n2c(NNC(=S)Nc3ccc(Cl)cc3)nc3ccccc3c2=O)cc1
reported property: inhibition
result: Dose-dependent effect

QUERY: State its inhibition for this molecule: O=C1Nc2ccccc2/C1=N/Nc1nc2ccccc2c(=O)n1-c1ccc(Cl)cc1
RESULT: Dose-dependent effect

QUERY: Quick one: give measured inhibition for CCOc1ccc(NC(=S)NNc2nc3ccccc3c(=O)n2-c2ccc(Cl)cc2)cc1
RESULT: Dose-dependent effect

QUERY: Supply inhibition value. Item: O=C(O)c1cccc(NC(=S)NNc2nc3ccccc3c(=O)n2-c2cccc(Br)c2)c1
RESULT: Dose-dependent effect

QUERY: State its inhibition for this molecule: Cc1ccc(-n2c(N/N=C3\C(=O)Nc4ccccc43)nc3ccccc3c2=O)cc1
RESULT: Dose-dependent effect

QUERY: Return inhibition for the following molecule: O=C1Nc2ccccc2/C1=N/Nc1nc2ccccc2c(=O)n1-c1cccc(Cl)c1
RESULT: Dose-dependent effect

QUERY: Return reported inhibition. Input molecule: CCOc1ccc(-n2c(NNC(=S)Nc3ccc(Br)cc3)nc3ccccc3c2=O)cc1
RESULT: Dose-dependent effect

QUERY: Give reported inhibition value for O=C1Nc2ccccc2/C1=N/Nc1nc2ccccc2c(=O)n1-c1cccc(Br)c1
RESULT: Dose-dependent effect
